Listed below: inhibition at 10 µM values for each entry.
target: human CB1 receptor (Homo sapiens, UniProt P21554); construct: expressed in transfected cells; host or cells: human embryonic kidney (HEK) cells, Semliki Forest Virus system, membrane preparations; assay: CB1 receptor affinity ([3H]-CP-55,940 displacement, HEK cell membranes); format: binding; details: displacement of [3H]-CP-55,940 at 10 μM; read-out: CB1 receptor affinity [% inhibition @ 10 μM]
Sequence (P21554 whole entry): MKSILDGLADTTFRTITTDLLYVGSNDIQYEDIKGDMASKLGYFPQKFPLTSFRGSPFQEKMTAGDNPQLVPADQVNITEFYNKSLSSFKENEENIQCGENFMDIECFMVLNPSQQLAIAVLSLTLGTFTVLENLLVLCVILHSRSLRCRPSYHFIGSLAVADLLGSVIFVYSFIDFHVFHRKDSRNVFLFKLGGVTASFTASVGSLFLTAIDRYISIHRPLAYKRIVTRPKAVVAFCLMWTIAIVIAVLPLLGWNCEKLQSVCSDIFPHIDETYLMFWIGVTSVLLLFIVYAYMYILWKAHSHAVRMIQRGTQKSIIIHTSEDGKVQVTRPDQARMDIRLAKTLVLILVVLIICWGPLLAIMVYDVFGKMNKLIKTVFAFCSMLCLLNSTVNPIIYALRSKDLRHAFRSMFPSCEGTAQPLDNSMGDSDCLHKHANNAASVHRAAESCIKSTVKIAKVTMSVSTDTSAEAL
Field: numeric (%). Do not append units.

Use these answered entries as a reference point.
O=C(NN1CCOCC1)c1cnc(OCC(F)(F)F)c(-c2ccc(Cl)cc2)c1 :: 43
O=C(NN1CCS(=O)(=O)CC1)c1cnc(OCC(F)(F)F)c(C2CC2)c1 :: -2
O=C(NNc1ccc(F)cc1)c1cnc(OCC2CC2)c(C2CC2)c1 :: 11
O=C(NN1CCS(=O)(=O)CC1)c1cnc(OCC(F)(F)F)c(-c2ccc(Cl)cc2)c1 :: 39
CN(NC(=O)c1cnc(OCC(F)(F)F)c(C2CC2)c1)c1ccncc1 :: 13
CN(NC(=O)c1cnc(OCC(F)(F)F)c(-c2cccc(F)c2)c1)c1ccccc1 :: 28

Alright, here's another molecule for you.
The molecule COC[C@@H]1CCCN1NC(=O)c1cnc(OCC(F)(F)F)c(C2CCCC2)c1 showed inhibition at 10 µM equal to 33
